test: Clinical trial 005, rifalazil concentration in plasma of tuberculosis patients; assay type: in vivo, human; conditions: human, plasma, INH + 10 mg KRM; Hour 24; read-out: Rifalazil Concentration in Plasma, Mean

>  <COMPOUND>
CO[C@H]1/C=C/O[C@@]2(C)Oc3c(C)c(O)c4c(=O)c(c5oc6cc(N7CCN(CC(C)C)CC7)cc(O)c6nc-5c4c3C2=O)NC(=O)/C(C)=C\C=C\[C@H](C)[C@H](O)[C@@H](C)[C@@H](O)[C@@H](C)[C@H](OC(C)=O)[C@@H]1C [Rifalazil]

>  <concentration at 24 h>
3.6 ng/mL

$$$$

###

assay: in vivo; parameters: species or system rats; conditions: male, rat
MEASURED QUANTITY: CL/F (mL/min/kg)

>  <MOLECULE>
CO[C@H]1/C=C/O[C@@]2(C)Oc3c(C)c(O)c4c(=O)c(c5oc6cc(N7CCN(CC(C)C)CC7)cc(O)c6nc-5c4c3C2=O)NC(=O)/C(C)=C\C=C\[C@H](C)[C@H](O)[C@@H](C)[C@@H](O)[C@@H](C)[C@H](OC(C)=O)[C@@H]1C

>  <UNIT OF MEASURE>
mL/min/kg

>  <RECORDED VALUE>
3.07

$$$$

###

experiment: Clinical trial 005, rifalazil concentration in plasma of tuberculosis patients; assay type: in vivo, human; settings: human, plasma, INH + 10 mg KRM; Hour 48; read-out: Rifalazil Concentration in Plasma, Min
MEASURED QUANTITY: concentration at 48 h (ng/mL)

>  <MOLECULE>
CO[C@H]1/C=C/O[C@@]2(C)Oc3c(C)c(O)c4c(=O)c(c5oc6cc(N7CCN(CC(C)C)CC7)cc(O)c6nc-5c4c3C2=O)NC(=O)/C(C)=C\C=C\[C@H](C)[C@H](O)[C@@H](C)[C@@H](O)[C@@H](C)[C@H](OC(C)=O)[C@@H]1C

>  <MEASURED QUANTITY>
concentration at 48 h

>  <RECORDED VALUE>
2.2

$$$$

###

experiment: Clinical trial 005, rifalazil concentration in plasma of tuberculosis patients; format: in vivo, human; settings: human, plasma, INH + 10 mg KRM; Hour 9; read-out: Rifalazil Concentration in Plasma, Mean
MEASURED QUANTITY: concentration at 9 h (ng/mL)

>  <COMPOUND>
CO[C@H]1/C=C/O[C@@]2(C)Oc3c(C)c(O)c4c(=O)c(c5oc6cc(N7CCN(CC(C)C)CC7)cc(O)c6nc-5c4c3C2=O)NC(=O)/C(C)=C\C=C\[C@H](C)[C@H](O)[C@@H](C)[C@@H](O)[C@@H](C)[C@H](OC(C)=O)[C@@H]1C [Rifalazil]

>  <RECORDED VALUE>
9.75

$$$$

###

assay: Clinical trial 005, rifalazil concentration in plasma of tuberculosis patients; type: in vivo, human; conditions: human, plasma, INH + 25 mg KRM; Hour 5; read-out: Rifalazil Concentration in Plasma, Med
MEASURED QUANTITY: concentration at 5 h (ng/mL)

>  <COMPOUND>
CO[C@H]1/C=C/O[C@@]2(C)Oc3c(C)c(O)c4c(=O)c(c5oc6cc(N7CCN(CC(C)C)CC7)cc(O)c6nc-5c4c3C2=O)NC(=O)/C(C)=C\C=C\[C@H](C)[C@H](O)[C@@H](C)[C@@H](O)[C@@H](C)[C@H](OC(C)=O)[C@@H]1C [Rifalazil]

>  <RECORDED VALUE>
30.9

$$$$
